FYI, the data here is from ChEMBL document CHEMBL1961873.

ASSAYED TARGET: Protein kinase C alpha type (Homo sapiens) (UniProt P17252);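 note: each value is the mean percent inhibition of PKC-alpha kinase activity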
MEASUREMENT CONTEXT: at 0.1 µM
The following compounds are shown together with reported inhibition values.
MEASURED METRIC: inhibition (%)

NS(=O)(=O)c1ccc(N/N=C2\C(=O)Nc3cccc(CCc4ccncc4)c32)cc1 = 0.11
Cc1cc(O)cc(C)c1/C=C/c1cncc(C(=O)OC(C)(C)C)c1 = 0.14
CN(c1ccc(NC(=O)NCCN2CCOCC2)cc1)c1ccnc(Nc2ccc(CS(C)(=O)=O)cc2)n1 = -0.51
CCn1c(-c2nonc2N)nc2cncc(C(=O)NCCNC)c21 = 15.5
COC(=O)Nc1nc2cc(Oc3ccc(NC(=O)Nc4ccccc4)cc3)ccc2[nH]1 = -0.02
COc1ccc(Nc2ncc(-c3ccccc3)o2)cc1OC = 1.08
c1ccc(-c2n[nH]cc2-c2ccnc(-c3ccc(OCCn4ccnc4)cc3)c2)nc1 = 0.35
CCCNc1cccc(-n2ncc3c(N/N=C/c4ccncc4)ncnc32)c1 = 0.98
COc1ccc2ncn(-c3cc(O[C@H](C)c4ccccc4C(F)(F)F)c(C(N)=O)s3)c2c1 = 0.07
Cc1cc(O)cc(C)c1/C=C/c1cncc(C(N)=O)c1 = 1.24
